Ref: ChEMBL document CHEMBL1156302

Listed next: entries and their corresponding IC50.
system: MT2; assay: Cytotoxicity against human MT2 cells; format: cell-based
endpoint name: IC50 (µM)

1) O=C(O)c1cc(NC(=O)c2cc3c(OCc4ccccc4)c(c2)Cc2cc(C(=O)Nc4cc(C(=O)O)cc(C(=O)O)c4)cc(c2OCc2ccccc2)Cc2cc(C(=O)Nc4cc(C(=O)O)cc(C(=O)O)c4)cc(c2OCc2ccccc2)Cc2cc(C(=O)Nc4cc(C(=O)O)cc(C(=O)O)c4)cc(c2OCc2ccccc2)C3)cc(C(=O)O)c1
18
2) CCCCOc1c2cc(C(=O)NCCN)cc1Cc1cc(C(=O)NCCN)cc(c1OCCCC)Cc1cc(C(=O)NCCN)cc(c1OCCCC)Cc1cc(C(=O)NCCN)cc(c1OCCCC)C2
16

###

Listed next: entries and their corresponding IC50.
system: MT2; experiment: Cytotoxicity against human MT2 cells; format: cell-based
endpoint name: IC50

1. O=C(O)c1cc2c(OCc3ccccc3)c(c1)Cc1cc(C(=O)O)cc(c1OCc1ccccc1)Cc1cc(C(=O)O)cc(c1OCc1ccccc1)Cc1cc(C(=O)O)cc(c1OCc1ccccc1)C2
> 50 µM
2. O=C(O)c1cc2c(O)c(c1)Cc1cc(C(=O)O)cc(c1O)Cc1cc(C(=O)O)cc(c1O)Cc1cc(C(=O)O)cc(c1O)C2
> 50 µM
3. CCCCOc1c2cc(C(=O)Nc3cc(C(=O)O)cc(C(=O)NC4CCCCC4)c3)cc1Cc1cc(C(=O)Nc3cc(C(=O)O)cc(C(=O)NC4CCCCC4)c3)cc(c1OCCCC)Cc1cc(C(=O)Nc3cc(C(=O)O)cc(C(=O)NC4CCCCC4)c3)cc(c1OCCCC)Cc1cc(C(=O)Nc3cc(C(=O)O)cc(C(=O)NC4CCCCC4)c3)cc(c1OCCCC)C2
> 50 µM
